Test system: L02
method.description: Cytotoxicity against human L02 cells assessed as reduction in cell viability incubated for 24 hrs by MTT assay
Assay type: cell-based
cond: L02, 24 h
property: IC50 (µM)
Return type: number; implicit unit µM.

O=C1/C(=C/c2cccc(F)c2)CN(S(=O)(=O)c2ccc([N+](=O)[O-])cc2)C/C1=C\c1cccc(F)c1; 10.7
O=C1/C(=C/c2cccc(F)c2)CN(S(=O)(=O)c2ccc(F)cc2)C/C1=C\c1cccc(F)c1; 21.9
Cl.NC1=NC(c2ccc(F)cc2)C2=C(N1)/C(=C/c1ccc(F)cc1)CN(S(=O)(=O)c1ccc(Br)cc1)C2 (configuration not stated); 18.3
Cl.N#Cc1ccc(S(=O)(=O)N2CC3=C(NC(N)=NC3c3ccccc3F)/C(=C/c3ccccc3F)C2)cc1 (configuration not stated); 12
Cl.NC1=NC(c2ccc(F)cc2)C2=C(N1)/C(=C/c1ccc(F)cc1)CN(S(=O)(=O)c1ccc(C(F)(F)F)cc1)C2 (configuration not stated); 15.4

Input line: Identify IC50 associated with the molecule Cl.N#Cc1ccc(S(=O)(=O)N2CC3=C(NC(N)=NC3c3cccc(F)c3)/C(=C/c3cccc(F)c3)C2)cc1 (configuration not stated)
Output line: 17.2

Input line: Identify IC50 associated with the molecule `Cc1ccc(S(=O)(=O)N2C/C(=C\c3ccc(F)cc3)C(=O)/C(=C/c3ccc(F)cc3)C2)cc1`
Output line: 14

* * *

method.description: Cytotoxicity against human HHL-5 cells assessed as reduction in cell viability incubated for 24 hrs by MTT assay
Assay type: cell-based
cond: HHL-5, 24 h
Documented IC50 across a set of compounds
Return type: number; implicit unit µM.

CC(=O)Nc1ccc(S(=O)(=O)N2C/C(=C\c3ccccc3F)C(=O)/C(=C/c3ccccc3F)C2)cc1; 13.6
Cl.NC1=NC(c2ccccc2F)C2=C(N1)/C(=C/c1ccccc1F)CN(S(=O)(=O)c1ccc(F)cc1)C2 (stereo not given); 12
Cl.NC1=NC(c2ccccc2F)C2=C(N1)/C(=C/c1ccccc1F)CN(S(=O)(=O)c1ccc([N+](=O)[O-])cc1)C2 (stereo not given); 10.7
Cl.NC1=NC(c2ccccc2F)C2=C(N1)/C(=C/c1ccccc1F)CN(S(=O)(=O)c1ccccc1)C2 (stereo not given); 9.9
O=C1/C(=C/c2cccc(F)c2)CN(S(=O)(=O)c2ccc(Cl)cc2)C/C1=C\c1cccc(F)c1; 10.8

As a next step, examine the compound that follows.
Input line: Identify IC50 associated with the compound `CC(=O)Nc1ccc(S(=O)(=O)N2C/C(=C\c3ccc(F)cc3)C(=O)/C(=C/c3ccc(F)cc3)C2)cc1`
Output line: 15

* * *

method.description: Cytotoxicity against human HHL-5 cells assessed as reduction in cell viability incubated for 24 hrs by MTT assay
Format: cell-based
cond: HHL-5, 24 h
Documented pIC50 across a set of compounds
Interpret pIC50 as the negative base-10 log of the concentration measured in mol/L.

Cl.NC1=NC(c2ccccc2F)C2=C(N1)/C(=C/c1ccccc1F)CN(S(=O)(=O)c1ccc(C(F)(F)F)cc1)C2 (centres undefined); 4.68
Cl.NC1=NC(c2cccc(F)c2)C2=C(N1)/C(=C/c1cccc(F)c1)CN(S(=O)(=O)c1ccc(C(F)(F)F)cc1)C2 (centres undefined); 4.54
O=C1/C(=C/c2ccc(F)cc2)CN(S(=O)(=O)c2ccccc2)C/C1=C\c1ccc(F)cc1; 5.11
Cc1ccc(S(=O)(=O)N2C/C(=C\c3cccc(F)c3)C(=O)/C(=C/c3cccc(F)c3)C2)cc1; 4.95
O=C1/C(=C/c2cccc(F)c2)CN(S(=O)(=O)c2ccc(Br)cc2)C/C1=C\c1cccc(F)c1; 4.78

As a next step, examine the compound that follows.
Input line: Identify pIC50 associated with the compound Cc1ccc(S(=O)(=O)N2CC3=C(NC(N)=NC3c3ccccc3F)/C(=C/c3ccccc3F)C2)cc1.Cl (centres undefined)
Output line: 5.02
